Reference source for all entries: the nanobody polyreactivity screen of Harvey et al. (2022)

Assay: yeast display, Sf9 membrane polyspecificity reagent, FACS + sequencing; frameworks hold sequencing errors
assay-metric: polyreactivity (PSR sort gate)

QVQLVESGGGLDQAGGSLRLSCAASGRTLYKYAMGWYRQAPGKERELVAAIRWIGGSTYYADSVKGRFTISRDNAKNTVYLQMNSLKPEDTAVYYCAATYYYSRYGRYDYWGQGTQVTVSS	high polyreactivity
QVQLVESGGGLVQAGGSLSLICAASGSTSYRYAMGWYRQAPGKERELVAGITRSGGSTYYADSVKGRFTISRDNAKNTVYLQMNSLKPEDTAVYYCAAYYSRQYVGYGYWGQGTQVTVSS	high polyreactivity
QVQLVESGGGLVQAGGSLRLSCAASGSTFAVYAMGWNRQAPGKERELVASITRGGSTYYADSVKGRFTISRDNAKYTVYLQMNSLKPEDTAVYYCADSITHYWYGYWGQGTQVTVSS	high polyreactivity
QVQLVESGGGLVQAGGSLRLSCAASGRIFGRYAMGWYRQAPGKERELVADITYRTGRTYYADSVKGRFTISRDNAKNTVYLQMNSMKPEDTAVYYCAAESTSDPIDFEYWGQGTQVTVSS	low polyreactivity

Now for another entry.
Data request: Look up polyreactivity (PSR sort gate): `QVQLVESGGGLVQAGGSLRLSCAASGRTFPGNDMGWYRQAPGKERELVAAISSDDSTYYADSVKGRFTISRDNAKNTVYLQMNSLKPEDTAVYYCNAEYYEGYIGVPGSYWPYEYWGQGTQVTVSS`
Data returned: low polyreactivity
